Assayed system: CRTH2 (Homo sapiens)
Sequence (Q9Y5Y4 1-395): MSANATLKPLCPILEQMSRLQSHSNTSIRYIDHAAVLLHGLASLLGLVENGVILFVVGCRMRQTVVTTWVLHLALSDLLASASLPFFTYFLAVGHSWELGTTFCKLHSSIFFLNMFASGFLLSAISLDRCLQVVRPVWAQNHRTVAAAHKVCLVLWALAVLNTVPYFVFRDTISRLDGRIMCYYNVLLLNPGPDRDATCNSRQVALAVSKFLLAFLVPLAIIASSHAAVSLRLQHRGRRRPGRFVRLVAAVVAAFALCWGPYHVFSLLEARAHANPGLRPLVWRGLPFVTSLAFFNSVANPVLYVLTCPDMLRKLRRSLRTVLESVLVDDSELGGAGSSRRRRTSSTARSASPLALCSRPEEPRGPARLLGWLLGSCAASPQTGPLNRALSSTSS
Test name: FRET based competitive immunoassay (cAMP) in CRTH2 expressing CHO cells
Measurement context: CRTH2 expressing CHO cells incubated with forskolin and PGD2; Eu3+ cryptate-labeled anti-cAMP and d2-labeled cAMP
Task for the reader: assign each of the following compounds its reported IC50.
Numbers only, in nM.

Example cases with answers are listed next.
Cc1c(-c2nn(C3CC3)c(=O)c3ccccc23)c2ccccc2n1CC(=O)O ... 215
Cc1cc(Cn2nc(-c3c(C)n(CC(=O)O)c4ccc(F)cc34)c3ccccc3c2=O)c2ccccc2n1 ... 17
Cc1c(-c2ccc(=O)n(C(C)C)n2)c2ccccc2n1CC(=O)O ... 920
Cc1c(-c2nn(Cc3ccc(S(C)(=O)=O)cc3)c(=O)c3ccccc23)c2cc(Cl)ccc2n1CC(=O)O ... 26
Cc1c(-c2nn(Cc3ccc(C(F)(F)F)cc3)c(=O)c3ccccc23)c2cc(F)ccc2n1CC(=O)O ... 10
Cc1c(-c2cn(CC(F)(F)F)c(=O)c3ccccc23)c2ccccc2n1CC(=O)O ... 205

I need IC50 for every entry listed below, if you could help.
1. Cc1c(-c2ccc(=O)n(Cc3cc(F)c(F)cc3F)n2)c2cc(Cl)ccc2n1CC(=O)O
2. Cc1c(Cc2cn(Cc3ccccc3)c(=O)c3ccccc23)c2ccccc2n1CC(=O)O
3. Cc1c(Cc2ccc(=O)n(Cc3cc(F)c(F)cc3F)c2)c2ccccc2n1CC(=O)O
4. Cc1c(Cc2ccc(=O)n(Cc3cccc(F)c3)n2)c2cc(F)ccc2n1CC(=O)O

[7, 197, 28, 33]

---

Assayed system: CRTH2 (Homo sapiens, UniProt Q9Y5Y4)
Construct: expressed in transfected cells; host or cells: CHO cells
Sequence (Q9Y5Y4 1-395): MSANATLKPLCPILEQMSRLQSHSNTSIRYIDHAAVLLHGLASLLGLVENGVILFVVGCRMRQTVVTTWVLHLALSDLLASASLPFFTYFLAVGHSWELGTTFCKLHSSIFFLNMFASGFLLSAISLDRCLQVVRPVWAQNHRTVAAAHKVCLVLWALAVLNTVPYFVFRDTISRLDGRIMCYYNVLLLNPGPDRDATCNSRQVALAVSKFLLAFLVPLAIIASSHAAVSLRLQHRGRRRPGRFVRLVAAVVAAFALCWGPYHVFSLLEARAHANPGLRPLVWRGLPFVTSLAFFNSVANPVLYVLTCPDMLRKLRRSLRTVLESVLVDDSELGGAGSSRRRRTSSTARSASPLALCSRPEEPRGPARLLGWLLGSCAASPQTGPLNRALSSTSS
Test name: FRET based competitive immunoassay (cAMP) in CRTH2 expressing CHO cells
Assay type: cell-based
Measurement context: CRTH2 expressing CHO cells incubated with forskolin and PGD2; Eu3+ cryptate-labeled anti-cAMP and d2-labeled cAMP
Method: FRET Assay: To evaluate potency compounds were tested in a FRET based competitive immunoassay in which CRTH2 expressing CHO cells were incubated in the presence of forskolin and PGD2 along with Eu3+ cryptate-labeled anti-cAMP and d2-labeled cAMP.
Assay endpoint: log10 of IC50 (log10 of the value in nM)
Note: values are log10 of IC50 expressed in nM.

Cc1c(-c2cn(CC(O)(C(F)(F)F)C(F)(F)F)c(=O)c3ccccc23)c2cc(F)ccc2n1CC(=O)O ... 1.74

Each compound below has a recorded value; state its log10 of IC50.
1. Cc1ccc2c(c1)c(-c1ccc(=O)n(Cc3ccccc3)n1)c(C)n2CC(=O)O
2. Cc1c(Cc2ccc(=O)n(Cc3ccc(C(O)(C(F)(F)F)C(F)(F)F)cc3)n2)c2cc(F)ccc2n1CC(=O)O
3. Cc1c(-c2ccc(=O)n(CC(C)C)c2)c2ccccc2n1CC(=O)O
4. Cc1c(-c2nn(Cc3ccncc3)c(=O)c3ccccc23)c2cc(F)ccc2n1CC(=O)O
5. Cc1c(Cc2ccc(=O)n(Cc3ccccc3F)c2)c2ccccc2n1CC(=O)O

1: 1.81; 2: 0.85; 3: 2.48; 4: 0.48; 5: 1.61

---

Assayed system: CRTH2 (Homo sapiens)
Test name: FRET based competitive immunoassay (cAMP) in CRTH2 expressing CHO cells
Measurement context: CRTH2 expressing CHO cells incubated with forskolin and PGD2; Eu3+ cryptate-labeled anti-cAMP and d2-labeled cAMP
Threshold 60 nM: IC50 strictly smaller gives 1, otherwise -1.

Given Cc1c(-c2ccc(=O)n(CC(F)(F)F)c2)c2ccccc2n1CC(=O)O [Example 279] , is recorded IC50 strictly lower than 60 nM?
-1

---

Would you mind telling me the reported pIC50 of each entry?
Assayed system: CRTH2 (Homo sapiens)
Test name: FRET based competitive immunoassay (cAMP) in CRTH2 expressing CHO cells
Measurement context: CRTH2 expressing CHO cells incubated with forskolin and PGD2; Eu3+ cryptate-labeled anti-cAMP and d2-labeled cAMP
Numbers only, as −log10 of the molar value.

Cc1c(-c2nn(CC3CC3)c(=O)c3ccccc23)c2cc(F)ccc2n1CC(=O)O [Example 122] ... 7.57
Cc1c(-c2nn(Cc3ccc(C(F)(F)F)cc3)c(=O)c3ccccc23)c2cc(Cl)ccc2n1CC(=O)O [Example 198] ... 7.34

Please look at the items below and tell me pIC50 for each one, in order.
1. Cc1c(-c2cn(CC(C)(C)O)c(=O)c3ccccc23)c2cc(F)ccc2n1CC(=O)O [Example 254]
2. Cc1c(Cc2ccc(=O)n(CC(C)(C)O)n2)c2cc(F)ccc2n1CC(=O)O [Example 197]
3. Cc1c(-c2nn(Cc3ccc(C(F)(F)F)c(F)c3)c(=O)c3ccccc23)c2cc(Cl)ccc2n1CC(=O)O [Example 3]

1: 7.82; 2: 6.57; 3: 7.24

Look up pIC50 for the entries below, preserving their order.
1. Cc1c(Cc2ccc(=O)n(Cc3cc(F)ccc3F)n2)c2cc(F)ccc2n1CC(=O)O [Example 336]
2. Cc1c(-c2ccc(=O)n(C(C)C)c2)c2cc(Cl)ccc2n1CC(=O)O [Example 278]

1: 8.30; 2: 6.70

The measurements presented in this section are drawn from patent US20110105509A1.
